Tested on: UACC-62 melanoma
Assay: NCI tumour cell line growth inhibition, 48 h
measure name: TGI

Record excerpt, results attached:
- compound: "CC1(C)CCCC2(C)[C@@H]1CC[C@@]13CC(=O)[C@@](C)(CC[C@@H]21)C3 (some centres undefined)"
  TGI: "> 100 µM"
- compound: "O=c1cccccc1NCCCCCCCCNc1cccccc1=O"
  TGI: "> 100 µM"
- compound: "CC1=NOC(C)(O)/C1=N/O (centres undefined)"
  TGI: "> 100 µM"

Please look at the following compound next.
// NC(N)=N/N=C(/CCN1CCCC1)CC(c1ccccc1)c1c(O)c2ccccc2oc1=O (centres undefined) : TGI value = > 100 µM

====

Entries annotated with measured TGI
Tested on: RXF 393 renal
Test: NCI tumour cell line growth inhibition, 48 h

- compound: "O=c1cc(N2CCOCC2)[nH]c(=O)n1-c1cccc(Cl)c1"
  measure name: "TGI"
  result: "> 100 µM"
- compound: "C=C1CC[C@@H]2C(C)(C)[C@H](O)CC[C@@]2(C)[C@@H]1COc1ccc2ccc(=O)oc2c1"
  measure name: "TGI"
  result: "79.5 µM"
- compound: "CC(=O)c1c(-c2ccc(Cl)cc2)c(C#N)c(=S)n(C2OC(CO)C(O)C(O)C2O)c1-c1ccccc1 (centres undefined)"
  measure name: "TGI"
  result: "> 100 µM"
- compound: "O=C(C(Cl)Cl)N(O)c1ccccc1OCc1ccccc1"
  measure name: "TGI"
  result: "> 100 µM"
- compound: "CC1OC(OC2C(O)COC(OC3C(C)OC(OC4C(OC(=O)[C@]56CCC(C)(C)C[C@@H]5C5=CCC7[C@@]8(C)C[C@H](O)[C@H](OC9OC(CO)C(O)C(O)C9O)[C@@](C)(CO)[C@@H]8CC[C@@]7(C)[C@]5(C)CC6)OCC(O)C4O)C(O)C3OC3OCC(O)C(O)C3O)C2O)C(O)C(O)C1O (some centres undefined)"
  measure name: "TGI"
  result: "34.1 µM"

// `CC(=O)COC(=O)CC(C)=O` : TGI value = > 100 µM

====

Tested on: MOLT-4 leukemia
Assay: NCI tumour cell line growth inhibition, 48 h
Where a SMILES comes first, the peptide text is derived from it. Bridges are numbered along the chain shown (N, C = ends). [ ]: non-standard residue; d: D form. The star is where a group is joined. ξ: configuration not given here. PhAc = O=C(Cc1ccccc1)*; ξP = O=C(O)C1CCCN1
measure name: TGI

Record excerpt, results attached:
- molecule: "COC(=O)c1oc2c(C(C)=O)c(OCCN3CCOCC3)c(OC)cc2c1C"
  tested target: "MOLT-4 leukemia"
  TGI: "> 100 µM"
- molecule: "O=C(Cc1ccccc1)N[C@@H]1COC(=O)C2CCCN2C(=O)[C@@H]2CCCN2C1=O (stereo partly specified) (PhAc-[dS]-Pro-[ξP]; ester 1-C)"
  tested target: "MOLT-4 leukemia"
  TGI: "> 100 µM"
- molecule: "CCOC(=O)COc1ccc(OC)c2c1C(=O)CCC2"
  tested target: "MOLT-4 leukemia"
  TGI: "> 100 µM"
- molecule: "COC(=O)C1CC2c3c(c4ccccc4n3C)CC(C1=O)N2C (stereo unspecified)"
  tested target: "MOLT-4 leukemia"
  TGI: "> 100 µM"
- molecule: "CCOC(=O)N1CCC2(CC1)CC(=O)N(Nc1ccccc1)C2=O"
  tested target: "MOLT-4 leukemia"
  TGI: "> 100 µM"

// `C/C(=N/NC(=O)c1ccccc1O)c1ccc(/C(C)=N\NC(=O)c2ccccc2O)c2nc3cc(C)c(C)cc3nc12` : TGI value = > 100 µM

// `COc1cc(Cl)cc(-c2nn(-c3cccc(NC(=O)c4cccc(C(F)(F)F)c4)c3)cc2-c2ccncc2)c1` : TGI value = > 100 µM

// `COc1ccc(-c2ccccc2)c(N/N=C2\CCCNC2=O)c1` : TGI value = > 100 µM

// COc1cc(S(=O)(=O)Nc2ccc(-c3csc(N4C(=O)C(C)SC4c4cccc(Oc5ccccc5)c4)n3)cc2)ccc1Cl (stereo unspecified) : TGI value = > 100 µM
